Assignment: determine reported pIC50 for the given compounds.
Tested System: recombinant TDP1 (Homo sapiens, UniProt Q9NUW8)
Sequence (Q9NUW8 whole entry): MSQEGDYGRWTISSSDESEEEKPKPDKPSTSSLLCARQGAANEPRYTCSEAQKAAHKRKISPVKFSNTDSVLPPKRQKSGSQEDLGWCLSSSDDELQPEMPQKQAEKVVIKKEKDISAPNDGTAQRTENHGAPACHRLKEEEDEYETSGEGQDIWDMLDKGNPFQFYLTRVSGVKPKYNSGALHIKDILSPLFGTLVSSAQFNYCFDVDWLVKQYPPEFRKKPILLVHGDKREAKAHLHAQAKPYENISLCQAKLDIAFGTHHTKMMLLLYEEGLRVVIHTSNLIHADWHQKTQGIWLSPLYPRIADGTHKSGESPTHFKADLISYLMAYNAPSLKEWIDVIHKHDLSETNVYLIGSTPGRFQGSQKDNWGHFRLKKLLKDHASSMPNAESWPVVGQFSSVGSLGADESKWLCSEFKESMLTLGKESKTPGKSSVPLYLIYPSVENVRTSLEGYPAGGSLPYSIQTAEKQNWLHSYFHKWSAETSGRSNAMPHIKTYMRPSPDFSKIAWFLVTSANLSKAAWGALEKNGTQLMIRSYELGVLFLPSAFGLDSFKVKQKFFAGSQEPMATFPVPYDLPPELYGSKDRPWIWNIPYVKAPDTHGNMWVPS
Experiment Notes: Gel-based assay measuring the inhibition of recombinant TDP1
Assay type: biochemical
Measurement Context: Table 5; determined in duplicate; read-out: TDP1 (IC50, semiquantitative scale)
pIC50: −log10 of the molar value.

Fill in: pIC50 of COc1cc2c(=O)n(CCCN3CCOCC3)c3c(c2cc1OCCCN1CCCCC1)C(=O)c1cc2c(cc1-3)OCO2 is ___
4.43 to 4.92

Fill in: pIC50 of COC(=O)COc1cc2c3c(n(CCCN4CCOCC4)c(=O)c2cc1OC)-c1cc2c(cc1C3=O)OCO2 is ___
< 3.95

Fill in: pIC50 of COc1cc2c(=O)n(CCCN3CCOCC3)c3c(c2cc1OCCCN1CCOCC1)C(=O)c1cc2c(cc1-3)OCO2 is ___
< 3.95

Fill in: pIC50 of CCNCCCOc1cc2c3c(n(CCCN4CCOCC4)c(=O)c2cc1OC)-c1cc2c(cc1C3=O)OCO2 is ___
4.43 to 4.92

Fill in: pIC50 of COc1cc2c(=O)n(CCCN3CCOCC3)c3c(c2cc1OCCCN1CCN(C)CC1)C(=O)c1cc2c(cc1-3)OCO2 is ___
< 3.95

Fill in: pIC50 of COc1cc2c(=O)n(CCCN3CCOCC3)c3c(c2cc1OCCCN(C)C)C(=O)c1cc2c(cc1-3)OCO2 is ___
4.43 to 4.92

Fill in: pIC50 of C=CCOc1cc2c3c(n(CCCN4CCOCC4)c(=O)c2cc1OC)-c1cc2c(cc1C3=O)OCO2 is ___
< 3.95

====

Assignment: determine reported log10 GI50 for the given compounds.
Tested on: breast MDA-MB-435
Experiment Notes: COMPARE screening (NCI human cancer cell line screen), cytotoxicity GI50
Assay type: cell-based
Reminder: these figures are log10 of reported GI50, in nM before transformation.

Under breast MDA-MB-435: log10 GI50 value of Cl.O=C1c2ccccc2-c2c1c1ccc([N+](=O)[O-])cc1c(=O)n2CCCNCCO [Compound 5bl] ?
3.03

Under breast MDA-MB-435: log10 GI50 value of COc1cc2c3c(n(CCCn4ccnc4)c(=O)c2cc1OC)-c1ccccc1C3=O [Compound 5e] ?
1.15

Under breast MDA-MB-435: log10 GI50 value of COc1ccc2c(c1)C(=O)c1c-2n(CCCN)c(=O)c2ccccc12.Cl [Compound 5bg] ?
1.77

Under breast MDA-MB-435: log10 GI50 value of COc1cc2c3c(n(CCCN4CCNCC4)c(=O)c2cc1OC)-c1cc2c(cc1C3=O)OCO2.Cl.Cl [Compound 5p, Dihydrochloride] ?
3.66

Under breast MDA-MB-435: log10 GI50 value of COc1ccc2c(c1)C(=O)c1c-2n(CCCN=[N+]=[N-])c(=O)c2ccccc12 [Compound 5bf] ?
4.81

====

Test system: ovarian OVCAR-3
Experiment Notes: COMPARE screening (NCI human cancer cell line screen), cytotoxicity GI50
Assay type: cell-based
Measurement Context: Homo sapiens, OVCAR-3, read-out: cytotoxicity (GI50) ovarian OVCAR-3
Observed Property: GI50 (µM)
State the answer as a number, implicitly in µM.

Fill in: GI50 of Cl.NCCCCCCCCCn1c2c(c3ccccc3c1=O)C(=O)c1ccccc1-2 [Compound 5as, Hydrochloride] is ___
9.55

Fill in: GI50 of Cl.NCCCCCCCCCCCCn1c2c(c3ccccc3c1=O)C(=O)c1ccccc1-2 [Compound 5av, Hydrochloride] is ___
17.8

Fill in: GI50 of Cl.NCCCCCCCCn1c2c(c3ccccc3c1=O)C(=O)c1ccccc1-2 [Compound 5ar, Hydrochloride] is ___
3.47

Fill in: GI50 of Cl.NCCCCCCCn1c2c(c3ccccc3c1=O)C(=O)c1ccccc1-2 [Compound 5aq, Hydrochloride] is ___
1.7

====

Test system: renal SN12C
Experiment Notes: COMPARE screening (NCI human cancer cell line screen), cytotoxicity GI50
Assay type: cell-based
Observed Property: GI50 (nM)
State the answer as a number, implicitly in nM.

Fill in: GI50 of COc1cc2c3c(n(CCCN(C)C)c(=O)c2cc1OC)-c1ccccc1C3=O is ___
11000

Fill in: GI50 of Cl.O=C1c2ccccc2-c2c1c1ccccc1c(=O)n2CCCCNCCCn1c2c(c3ccccc3c1=O)C(=O)c1ccccc1-2 [Compound 14b, Hydrochloride] is ___
132

Fill in: GI50 of COc1cc2c3c(n(CCCN4CCN(C)CC4)c(=O)c2cc1OC)-c1cc2c(cc1C3=O)OCO2 is ___
11500

Fill in: GI50 of COc1cc2c3c(n(CCCn4cncn4)c(=O)c2cc1OC)-c1cc2c(cc1C3=O)OCO2.Cl [Compound 5n, Hydrochloride] is ___
85

Fill in: GI50 of Cl.NCCCCn1c2c(c3ccccc3c1=O)C(=O)c1ccccc1-2 is ___
40

Fill in: GI50 of O=C1c2ccccc2-c2c1c1ccc([N+](=O)[O-])cc1c(=O)n2CCCn1ccnc1 is ___
15

Fill in: GI50 of O=C1c2ccccc2-c2c1c1ccc([N+](=O)[O-])cc1c(=O)n2CCCN1CCOCC1 is ___
309

Fill in: GI50 of COc1ccc2c(c1)C(=O)c1c-2n(CCCN(C)C)c(=O)c2ccccc12 is ___
245

Fill in: GI50 of Cl.NCCn1c2c(c3ccccc3c1=O)C(=O)c1ccccc1-2 is ___
490

Fill in: GI50 of CN(C)CCCn1c2c(c3cc4c(cc3c1=O)OCO4)C(=O)c1ccccc1-2 is ___
23

Fill in: GI50 of COc1cc2c3c(n(CCCN4CCC(N)CC4)c(=O)c2cc1OC)-c1cc2c(cc1C3=O)OCO2.Cl.Cl [Compound 5u, Dihydrochloride] is ___
257

Fill in: GI50 of COc1ccc2c(c1)C(=O)c1c-2n(CCCI)c(=O)c2cc([N+](=O)[O-])ccc12 is ___
309

Fill in: GI50 of Cl.O=C1c2ccccc2-c2c1c1ccc([N+](=O)[O-])cc1c(=O)n2CCCNCCO is ___
229

Fill in: GI50 of O=C1c2ccccc2-c2c1c1ccccc1c(=O)n2CCNCCO [Compound S-2, oracin, reference compound] is ___
950

Fill in: GI50 of COc1cc2c3c(n(CCCn4cccn4)c(=O)c2cc1OC)-c1cc2c(cc1C3=O)OCO2 is ___
316

Fill in: GI50 of COc1cc2c3c(n(CCCN4CCNCC4)c(=O)c2cc1OC)-c1cc2c(cc1C3=O)OCO2.Cl.Cl [Compound 5p, Dihydrochloride] is ___
91

Fill in: GI50 of O=C(O)C(F)(F)F.O=C1c2ccccc2-c2c1c1ccccc1c(=O)n2CCCNCCn1c2c(c3ccccc3c1=O)C(=O)c1ccccc1-2 [Compound 14a] is ___
11000

====

Tested on: lung HOP-62
Experiment Notes: COMPARE screening (NCI human cancer cell line screen), cytotoxicity GI50
Type: cell-based
Description: Selected compounds were tested for antiproliferative activity in the National Cancer Institute's developmental therapeutics assay 60 cell line screen (NCI60). The cells were incubated with the tested compounds at 100, 10, 1, 0.1, and 0.01 μM concentrations for 48 h before treatment with sulforhodamine B dye. Optical densities were recorded, and their ratios relative to that of the control were plotted as percentage growth against the log 10 of the tested compound concentrations.
Observed Property: GI50 (nM)
State the answer as a number, implicitly in nM.

Fill in: GI50 of COc1cc2c3c(n(CCCn4cccn4)c(=O)c2cc1OC)-c1cc2c(cc1C3=O)OCO2 is ___
447

Fill in: GI50 of CC(C)(C)OC(=O)NCCCCCCCCn1c2c(c3ccccc3c1=O)C(=O)c1ccccc1-2 is ___
10700

====

System: lung HOP-62
Experiment Notes: COMPARE screening (NCI human cancer cell line screen), cytotoxicity GI50
Assay type: cell-based
Lab note: anything with GI50 below 800 nM is marked Y; values at 800 nM or higher are marked N.

Strictly below 800 nM: is that where GI50 of COc1cc2c(=O)n(CCCN3CCOCC3)c3c(c2cc1O)C(=O)c1cc2c(cc1-3)OCO2 sits?
Y

Strictly below 800 nM: is that where GI50 of CN(C)CCCn1c2c(c3cc4c(cc3c1=O)OCO4)C(=O)c1ccccc1-2 sits?
Y

Strictly below 800 nM: is that where GI50 of CC(C)(C)OC(=O)NCCCCCCCCCCCn1c2c(c3ccccc3c1=O)C(=O)c1ccccc1-2 sits?
N

Strictly below 800 nM: is that where GI50 of COc1ccc2c(c1)C(=O)c1c-2n(CCCN=[N+]=[N-])c(=O)c2ccccc12 sits?
N

Strictly below 800 nM: is that where GI50 of O=C(O)C(F)(F)F.O=C1c2ccccc2-c2c1c1ccccc1c(=O)n2CCCNCCn1c2c(c3ccccc3c1=O)C(=O)c1ccccc1-2 [Compound 14a] sits?
N

Strictly below 800 nM: is that where GI50 of COc1cc2c3c(n(CCCN(CCCN(CCCn4c5c(c6ccccc6c4=O)C(=O)c4ccccc4-5)C(=O)OC(C)(C)C)C(=O)OC(C)(C)C)c(=O)c2cc1OC)-c1cc2c(cc1C3=O)OCO2 [Compound 16a] sits?
N

Strictly below 800 nM: is that where GI50 of Cl.O=C1c2ccccc2-c2c1c1ccc([N+](=O)[O-])cc1c(=O)n2CCCNCCO sits?
Y

Strictly below 800 nM: is that where GI50 of Cl.NCCn1c2c(c3ccccc3c1=O)C(=O)c1ccccc1-2 sits?
Y

Strictly below 800 nM: is that where GI50 of COc1cc2c3c(n(CCCn4ccnc4)c(=O)c2cc1OC)-c1cc2c(cc1C3=O)OCO2.Cl [Compound 5l, Hydrochloride] sits?
Y

Strictly below 800 nM: is that where GI50 of COc1ccc2c(c1)C(=O)c1c-2n(CCCN2CCOCC2)c(=O)c2cc([N+](=O)[O-])ccc12 sits?
Y

Strictly below 800 nM: is that where GI50 of COc1ccc2c(c1)C(=O)c1c-2n(CCCCl)c(=O)c2cc([N+](=O)[O-])ccc12 sits?
Y

Strictly below 800 nM: is that where GI50 of COc1cc2c3c(n(CCCN4CCN(C)CC4)c(=O)c2cc1OC)-c1cc2c(cc1C3=O)OCO2 sits?
N

Strictly below 800 nM: is that where GI50 of COc1cc2c3c(n(CCCN4CCNCC4)c(=O)c2cc1OC)-c1cc2c(cc1C3=O)OCO2.Cl.Cl [Compound 5p, Dihydrochloride] sits?
Y

Strictly below 800 nM: is that where GI50 of CC(C)(C)OC(=O)NCCCCCCCCCn1c2c(c3ccccc3c1=O)C(=O)c1ccccc1-2 sits?
N
